- assay_comment: Kinetic solubility assay
- Type: physicochemical
- measurement_setup: PBS buffer pH 6.5, aqueous buffer, thermodynamic from solid; pH 6.5 PBS buffer, HPLC; read-out: Solubility (pH 6.5, μg/mL)
quantity_measured: solubility (µg/mL)
Answers are plain numbers, in µg/mL.

Give the measured solubility of "Cc1nc2sc1CSc1cc(c3ccccc3c1)OCCCc1c(C(=O)O)n(C)c3c(c(Cl)ccc13)-c1c(nn3c1CCC3)CSC2" .
2

Okay, now this compound:
Give the measured solubility of "Cn1nc2cc1CSCc1nn3c(c1-c1c(Cl)ccc4c(c(C(=O)O)n(C)c14)CCCOc1cc(cc4ccccc14)SC2)CCC3" .
1
